Kindly supply the reported EC50 values for the records listed here.
# Test Target: T1, LILRB2-His antigen (UniProt Q8N423 22-460, limits assumed)
# T1 construct: Coated on ELISA plates; also used for phage panning; also called LILRB2 antigen; not shown: His tag
# Protocol: indirect ELISA, coated LILRB2-His
One number for each entry, in nM.

# Binder, Meas Value
rows = [
    ("B2-2 (antibody, V domains shown, also called B2-2_HC; B2-2_LC) VH: QVQLVQSGAEVKKPGASVKVSCKASGYTFSDYGFSWVRQAPGQGLEWMGWISGYNGNTNYAQKFQGRVTMTIDASTSTAYMELRSLKSDDTAVYYCARLLLGYYGMDVWGQGTTVTVSS VL: DIVMTQSPSSLSASVGDRVTLTCRASQSIGNYLNWYQQKPGKAPNLLIYAASSLQSGVPSRFSGSGSGTDFTLTISSLQPEDFATYYCQQSFSIPPITFGQGTRLEIK", 1.6),
]

Take each entry in turn and give its EC50.
1. B2-8 (antibody, V domains shown, also called B2-8_HC; B2-8_LC) VH: QVQLVQSGAEVKKPGSSVKVSCKASGGTFSSYAISWVRQAPGQGLEWMGGIIPIFGTANYAQKFQGRVTITADESTSTAYMELSSLRSEDTAVYYCARVAVADTFFDYWGQGTLVTVSS VL: QPVLTQPASVSGSPGQSITISCTGTSSDVGGYNYVSWYQQHPGKAPKLMIYDVSNRPSGVSNRFSGSKSGNTASLTISGLQAEDEADYYCSSYTSSSTPYVFGTGTKVTVL
2. B2-25 (antibody, V domains shown, also called B2-25_HC; B2-25_LC) VH: QVQLVESGGGLVKPGGSLRLSCAASGFTFSDHYMSWIRQAPGKGLEWVSYITTTGSTMSYADSVKGRFTISRDNSKNSLHLQLSSLRAEDTAVYYCARDSIHVDGAFDIWGQGTMVTVSS VL: SYELTQPPSVSVAPGQTARITCGGNNIGSKSVHWYQQKPGQAPVLVVYDDSDRPSGIPERFSGSNSGNTATLTISRVEAGDEADYYCQVWDSSSDHWVFGGGTKLTVL

**A:**
0.557
1.73

Values were extracted from patent US20230068663A1.
